B1: library; numbered along this chain (parent)
chain: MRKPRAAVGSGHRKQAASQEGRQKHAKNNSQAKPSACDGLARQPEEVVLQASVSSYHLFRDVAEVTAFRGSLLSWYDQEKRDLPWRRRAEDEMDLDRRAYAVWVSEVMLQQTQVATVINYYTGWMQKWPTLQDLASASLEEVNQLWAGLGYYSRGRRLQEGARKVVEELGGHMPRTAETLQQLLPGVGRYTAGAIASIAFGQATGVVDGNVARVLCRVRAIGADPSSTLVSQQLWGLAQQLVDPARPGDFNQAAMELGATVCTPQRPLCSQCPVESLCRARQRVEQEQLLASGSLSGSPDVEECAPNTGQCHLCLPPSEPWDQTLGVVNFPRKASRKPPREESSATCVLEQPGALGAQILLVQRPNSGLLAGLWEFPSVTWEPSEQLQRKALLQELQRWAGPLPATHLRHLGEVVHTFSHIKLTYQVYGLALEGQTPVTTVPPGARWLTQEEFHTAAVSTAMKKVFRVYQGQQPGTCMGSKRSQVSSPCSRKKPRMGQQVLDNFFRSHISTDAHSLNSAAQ

# Variants of: B1
# Assay info: 8OG:A repair function score (normalized; synonymous = 0, nonsense = -1) (normalized log-likelihood score); higher = more repair activity (WT-like);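 further: cells sorted at 72 h after reporter transfection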
# Condition set: with 8OG:A DNA repair reporter (GFP) in HEK-293 MUTYH KO cells
# label = Condition met if 8OG:A repair function score >= 0.0002 else Condition not met

Answered examples (6):
Alteration | Class
E46I | Condition met
A203V | Condition met
Q499I | Condition met
L241Y | Condition not met
T122H | Condition met
A391V | Condition met

Request: 8OG:A repair function score >= 0.0002 for S343D ?
Result: Condition met

Request: Check this variant for 8OG:A repair function score at or above 0.0002: G475F
Result: Condition not met

Request: Please tell me: is the variant W128M at or over 0.0002 in terms of 8OG:A repair function score?
Result: Condition not met

Request: Answer whether 8OG:A repair function score of R189H is greater than or equal to 0.0002.
Result: Condition not met

Request: Record P317D ; criterion: 8OG:A repair function score no lower than 0.0002. Met?
Result: Condition not met

Request: Can V65S be said to have 8OG:A repair function score at or above 0.0002?
Result: Condition not met

Request: # check: 8OG:A repair function score of A371F is greater than or equal to 0.0002
Result: Condition not met

Request: Determine whether this variant has 8OG:A repair function score no lower than 0.0002: S52I
Result: Condition not met

Request: Kindly determine if 8OG:A repair function score recorded for R336L is above or exactly 0.0002.
Result: Condition not met

Request: Textbook exercise: given the entry G297H , state whether its 8OG:A repair function score is greater than or equal to 0.0002.
Result: Condition met

Request: Entry E106R : is its 8OG:A repair function score no less than 0.0002?
Result: Condition not met

FYI, the data here is from the supplement of paper PMC11908140.
